test: in vivo; settings: female, Balb/c, mouse, po, 10 mg/kg
Structures can show the parent of a compound that is named as a salt.
observedProperty: concentration at 15 min (ng/mL)

molecule | observedProperty | testResult
COC(=O)c1ccc(OC[C@@H]2C[C@@H](N(C)C)CN2C(=O)Cc2ccc(NC(=O)Nc3ccccc3C)c(OC)c2)cc1 [Compound 156, HCl salt] | concentration at 15 min | 285

###

test: Pharmacokinetic evaluation in mouse; format: in vivo; conditions: plasma, po, 10 mg/kg, 10 mg/kg (p.o.), line of AUC 0–6 hr, read-out: MRT (mean residence time)
observedProperty: MRT (h)

smilesInput | observedProperty | testResult
Cc1ccccc1NC(=O)Nc1ccc(CC(=O)N2C[C@@H](F)C[C@H]2COc2ccc(C(=O)O)cc2)cc1Cl | MRT | 1.2
